Test system: L1210 leukemia ip in BDF1 mice, survival T/C
Test: NCI In Vivo Anticancer Drug Screen. Data for tumor model L1210 Leukemia (intraperitoneal) in B6D2F1 (BDF1) mice
Conditions: endpoint: mean survival time; dose: 75.0 mg/kg/injection; schedule: Q01DX009 (ip); vehicle: Klucel (hydroxypropylcellulose) (HPC); higher = longer survival
Procedure: The antitumor activity of compounds was measured in mice bearing transplantable tumors. Survival or tumor size were measured and the results are expressed as the measurement made in the treated group (T) divided by the measurement made in the vehicle treated control group (C). The tumor model used in this assay is L1210 Leukemia (intraperitoneal) in B6D2F1 (BDF1) mice
Inconclusive results and toxic doses are left out.
quantity_measured: T/C

As a guide, the following entries are already answered.
- compound: "Clc1ccc(OCc2sc3ccc(Br)cc3c2CN2CCOCC2)cc1"
  T/C: "100 % of control"
- compound: "CCCCCCCCN(c1ccc(C(=O)O)cc1)S(=O)(=O)c1ccc(C)cc1"
  T/C: "103 % of control"
- compound: "C[n+]1ccccc1/C=N/O"
  T/C: "102 % of control"
- compound: "COC(=O)NS(=O)(=O)/C=C\\n1c2ccccc2c2ccccc21"
  T/C: "98 % of control"

Please find the next compound below.
Problem: Given CCC(C)Sc1ccc(C)cc1 (stereo not given) , respond with its T/C.
Solution: 98 % of control
